- Tested on: MV-4-11
- assay_procedure: Tumor cell proliferation inhibition (CellTiter-Meiluncell Luminescent Cell Viability Assay)
- Assay type: cell-based
- conditions_used: Homo sapiens, MV4-11, 10 nM, 96 hours, Table I-12, FAK inhibitors, read-out: Inhibition Rate at 10 nM (%)
Each entry below lists one item and its recorded inhibition at 0.01 µM value.

These solved cases illustrate the format of a correct answer.
compound	observed_value
CN(c1nccnc1CNc1nc(Nc2ccc(N3CCN(Cc4cccc5c4CN(C4CCC(=O)NC4=O)C5=S)CC3)cc2)ncc1C(F)(F)F)S(C)(=O)=O (stereo not drawn) [GT-08783]	20 to 30%
CS(=O)(=O)c1cccc(CNc2nc(Nc3ccc(N4CCN(Cc5ccc6c(c5)CN(C5CCC(=O)NC5=O)C6=S)CC4)cc3)ncc2C(F)(F)F)c1 (stereo not drawn) [GT-08780]	20 to 30%
CN(c1cccc(CNc2nc(Nc3ccc(N4CCN(Cc5cccc6c5CN(C5CCC(=O)NC5=O)C6=S)CC4)cc3)ncc2C(F)(F)F)c1)S(C)(=O)=O (stereo not drawn) [GT-08883]	20 to 30%
CNC(=O)c1ccc(Nc2ncc(C(F)(F)F)c(NCc3nccnc3N(C)S(C)(=O)=O)n2)cc1 [Defactinib, reference compound]	0 to 5%
CN(c1cccc(CNc2nc(Nc3ccc(N4CCN(Cc5ccc6c(c5)CN(C5CCC(=O)NC5=O)C6=S)CC4)cc3)ncc2C(F)(F)F)c1)S(C)(=O)=O (stereo not drawn) [GT-08781]	5 to 10%

Now let's try a different one.
Write down the reported inhibition at 0.01 µM of CN(c1nccnc1CNc1nc(Nc2ccc(N3CCN(Cc4ccc5c(c4)CN(C4CCC(=O)NC4=O)C5=S)CC3)cc2)ncc1C(F)(F)F)S(C)(=O)=O (stereo not drawn) [GT-08779] , test system: MV-4-11.
10 to 20%

---

Each entry below lists one item and its recorded inhibition at 2 µM value.
- study_system: human Cereblon WT GST-tagged protein (Homo sapiens, UniProt Q96SW2)
- Construct: purchased CISBIO 64BDCRBNPEH
- Sequence (Q96SW2 whole entry): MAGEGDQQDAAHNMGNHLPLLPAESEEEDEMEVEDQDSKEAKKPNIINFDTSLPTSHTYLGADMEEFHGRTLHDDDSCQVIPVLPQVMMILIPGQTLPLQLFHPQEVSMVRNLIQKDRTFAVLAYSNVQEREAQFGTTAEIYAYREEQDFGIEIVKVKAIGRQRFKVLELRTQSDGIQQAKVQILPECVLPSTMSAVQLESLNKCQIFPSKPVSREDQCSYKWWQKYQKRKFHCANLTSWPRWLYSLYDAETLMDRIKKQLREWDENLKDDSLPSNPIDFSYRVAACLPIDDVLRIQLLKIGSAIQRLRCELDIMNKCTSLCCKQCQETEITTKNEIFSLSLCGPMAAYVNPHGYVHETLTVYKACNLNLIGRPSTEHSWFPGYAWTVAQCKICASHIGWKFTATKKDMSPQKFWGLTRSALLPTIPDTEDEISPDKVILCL
- assay_procedure: CRBN-binding affinity, HTRF (CEREBLON BINDING kit)
- conditions_used: read-out: Inhibition Rate at 2 µM (%)

These solved cases illustrate the format of a correct answer.
molecule	value_kind	observed_value
Cc1ccsc1C(=O)n1nc(Nc2ccc(S(=O)(=O)N3CCN(Cc4ccc5c(c4)C(=S)N(C4CCC(=O)NC4=O)C5)CC3)cc2)nc1N (stereo not shown)	inhibition at 2 µM	60 to 80%
COc1cc2nn(C3CCN(Cc4ccc5c(c4)CN(C4CCC(=O)NC4=O)C5=S)CC3)cc2cc1NC(=O)c1cccc(C(F)(F)F)n1 (stereo not shown)	inhibition at 2 µM	80 to 100%
Nc1ncnc2c1c(-c1ccc(Oc3ccccc3)cc1)nn2C1CCN(Cc2ccc3c(c2)CN(C2CCC(=O)NC2=O)C3=S)CC1 (stereo not shown)	inhibition at 2 µM	80 to 100%
CN(c1nccnc1CNc1nc(Nc2ccc(N3CCN(Cc4cccc5c4CN(C4CCC(=O)NC4=O)C5=S)CC3)cc2)ncc1C(F)(F)F)S(C)(=O)=O (stereo not shown)	inhibition at 2 µM	60 to 80%
Cc1ccc(C(=O)Nc2ccc(CN3CCN(Cc4cccc5c4CN(C4CCC(=O)NC4=O)C5=S)CC3)c(C(F)(F)F)c2)cc1C#Cc1cnc2cccnn12 (stereo not shown)	inhibition at 2 µM	60 to 80%

Write down the reported inhibition at 2 µM of N#CC1(CNc2nc(-c3cc(NC4CCN(Cc5ccc6c(c5)C(=S)N(C5CCC(=O)NC5=O)C6)CC4)ncc3Cl)cs2)CCOCC1 (stereo not shown) , test system: human Cereblon WT GST-tagged protein (Homo sapiens, UniProt Q96SW2).
80 to 100%

What do you have for Nc1nnc(-c2ccccc2O)cc1N1CCN(Cc2ccc3c(c2)C(=S)N(C2CCC(=O)NC2=O)C3)CC1 (stereo not shown) ?
80 to 100%

What do you have for N#CC1(CNc2cccc(-c3cc(NC4CCN(Cc5cccc6c5CN(C5CCC(=O)NC5=O)C6=S)CC4)ncc3Cl)n2)CCOCC1 (stereo not shown) ?
60 to 80%

What do you have for Cn1ncc(-c2nc(NC3CCN(Cc4cccc5c4CN(C4CCC(=O)NC4=O)C5=S)CC3)ncc2Cl)c1CC1CC1 (stereo not shown) ?
80 to 100%

What do you have for CN(c1cccc(CNc2nc(Nc3ccc(N4CCN(Cc5cccc6c5CN(C5CCC(=O)NC5=O)C6=S)CC4)cc3)ncc2C(F)(F)F)c1)S(C)(=O)=O (stereo not shown) ?
53 to 60%

What do you have for C[C@@H]1CNC(=O)c2cc3ccc(C(=O)Nc4cnn(Cc5ccc(N6CCN(Cc7ccc8c(c7)CN(C7CCC(=O)NC7=O)C8=S)CC6)cc5)c4)nc3n21 (stereo partly shown) ?
60 to 80%

What do you have for COc1cc2nn(C3CCN(Cc4cccc5c4CN(C4CCC(=O)NC4=O)C5=S)CC3)cc2cc1NC(=O)c1cccc(C(F)(F)F)c1 (stereo not shown) ?
60 to 80%

What do you have for CC(C)(O)c1cc2nc(C3CCN(Cc4ccc5c(c4)CN(C4CCC(=O)NC4=O)C5=S)CC3)sc2cc1NC(=O)c1cccc(C(F)(F)F)n1 (stereo not shown) ?
80 to 100%
